Fold-change — Normalized to DMSO control (BDNF) by entry:
Tested on: BDNF-induced nuclear Arc expression in primary cortical neurons
Assay: Chemogenomic screen: high-content image-based assay of BDNF-induced nuclear Arc expression (96-well)
Type: cell-based, mouse
Details: nuclear Arc-positive cells relative to DMSO + BDNF control; negative values = decrease
State the answer as a number, implicitly in fold.

Field: example entries. Status: answers known.
>>> result_number("CC(C)S(=O)(=O)N[C@H]1CCOC[C@@H]1c1ccc(-c2ccc(C#N)s2)cc1 [PF 4778574]")
1.8
>>> result_number("Cl.O=C(O)C1CCCN(CCC=C(c2ccccc2)c2ccccc2)C1 (stereo not shown) [SKF 89976A hydrochloride]")
1.1
>>> result_number("COc1ccc(-c2oc3c(CC=C(C)C)c(O[C@@H]4O[C@H](CO)[C@@H](O)[C@H](O)[C@H]4O)cc(O)c3c(=O)c2O[C@@H]2O[C@@H](C)[C@H](O)[C@@H](O)[C@H]2O)cc1 [Icariin]")
2.2
>>> result_number("CN(CCOc1ccc(CC2SC(=O)NC2=O)cc1)c1ccccn1 (stereo not shown) [Rosiglitazone]")
1.5
>>> result_number("CCN(CC)C(=O)/C(C#N)=C/c1cc(O)c(O)c([N+](=O)[O-])c1 [Entacapone]")
1.4
>>> result_number("NC[C@H](CC(=O)O)c1ccc(Cl)cc1 [(R)-Baclofen]")
1.6
>>> result_number("CCN(CC)CCNC(=O)c1cc(Br)c(N)cc1OC [Bromopride]")
1.4
>>> result_number("O=C(O)CNC(=O)c1c(O)c2ccccc2n(Cc2ccccc2)c1=O [IOX2]")
2.3

Which Fold-change — Normalized to DMSO control (BDNF) reading was recorded for the molecule O=C(c1ccc(F)cc1)C1CCN(CCn2c(=O)[nH]c3ccccc3c2=O)CC1 [Ketanserin] ? 1.0

Given the entry NC(=O)CN1CC(O)CC1=O (stereo not shown) [Oxiracetam] , report its measured Fold-change — Normalized to DMSO control (BDNF). 2.1

Need Fold-change — Normalized to DMSO control (BDNF), item C[N+]12CCC(CC1)C(OC(=O)C(O)(c1ccccc1)c1ccccc1)C2 (stereo not shown) [Clidinium bromide] 1.2

Returns the measured Fold-change — Normalized to DMSO control (BDNF) for the input molecule. Input: CNC(=O)N1N=C(c2ccc(N)cc2)c2cc3c(cc2CC1C)OCO3 (stereo not shown) [GYKI-53655] 1.8

# Fold-change — Normalized to DMSO control (BDNF) lookup, item COc1ccc2c3c([nH]c2c1)C(C)=NCC3 [Harmaline] 1.5
